All values here come from patent US20220073604A1.

- TARGET_DESC: T1, bacterially produced human IL-6 (human, UniProt P05231 30-212)
- T1 construct: Immobilised on the Biacore chip; also called BACT IL-6 (2-1); bactIL-6
- PROTOCOL_NOTES: SPR (Biacore), periplasmic Fab
MEASURED_PARAMETER: koff (s⁻¹)

>>> reading("55C11 (Fab, V domains shown, Periplasmic Fab; Suffix 'f' not explained; also called 55C11f) VH: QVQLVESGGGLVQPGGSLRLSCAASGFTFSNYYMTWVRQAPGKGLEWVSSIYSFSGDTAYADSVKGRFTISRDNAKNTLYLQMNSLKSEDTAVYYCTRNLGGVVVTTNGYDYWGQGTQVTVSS VL: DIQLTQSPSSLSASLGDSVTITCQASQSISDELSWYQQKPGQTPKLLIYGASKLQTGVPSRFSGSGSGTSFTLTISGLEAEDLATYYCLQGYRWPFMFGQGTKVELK")
"6.94e-05"
>>> reading("48H1 (Fab, V domains shown, Periplasmic Fab; Suffix 'g2, R4' not explained; also called 48H1g2, R4) VH: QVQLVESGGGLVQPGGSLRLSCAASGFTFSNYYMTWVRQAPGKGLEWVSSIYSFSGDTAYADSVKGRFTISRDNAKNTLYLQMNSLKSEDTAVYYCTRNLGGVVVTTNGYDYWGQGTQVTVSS VL: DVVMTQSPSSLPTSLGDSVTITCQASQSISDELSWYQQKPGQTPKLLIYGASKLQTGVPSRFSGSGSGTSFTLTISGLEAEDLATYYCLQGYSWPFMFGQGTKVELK")
"7.04e-05"
>>> reading("55A11 (Fab, V domains shown, Periplasmic Fab; Suffix 'd' of the label not explained; also called 55A11d) VH: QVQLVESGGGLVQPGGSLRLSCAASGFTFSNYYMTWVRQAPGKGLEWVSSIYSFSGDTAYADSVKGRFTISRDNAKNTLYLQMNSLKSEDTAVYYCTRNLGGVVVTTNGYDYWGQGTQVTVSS VL: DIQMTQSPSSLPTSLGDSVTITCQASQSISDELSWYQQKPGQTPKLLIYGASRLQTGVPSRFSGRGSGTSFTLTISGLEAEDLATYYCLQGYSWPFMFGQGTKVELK")
"6.76e-05"
>>> reading("55E10 (Fab, V domains shown, Periplasmic Fab; Suffix 'g1' not explained; also called 55E10g1) VH: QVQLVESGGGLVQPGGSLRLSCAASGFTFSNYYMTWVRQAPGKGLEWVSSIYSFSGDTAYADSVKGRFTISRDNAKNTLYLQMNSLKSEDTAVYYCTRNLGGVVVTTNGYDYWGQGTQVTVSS VL: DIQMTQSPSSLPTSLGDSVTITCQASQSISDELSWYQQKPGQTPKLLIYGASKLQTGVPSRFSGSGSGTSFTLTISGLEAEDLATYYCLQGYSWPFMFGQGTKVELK")
"6.09e-05"
